Data provenance: patent US20210002231A1

Residues, ends and D or L forms follow the SMILES beside them.
So I've got a bunch of compounds here, and I need their pKi values.
The meaning of pKi here: minus log10 of the concentration in molar units.

Item Cc1cc(O)cc(C)c1C[C@H](N)C(=O)N[C@H](CCCNC(=N)N)C(=O)N[C@H]1Cc2ccccc2CN(CCC(=O)N[C@@H](CCCNC(=N)N)C(=O)N[C@@H](Cc2ccccc2)C(N)=O)C1=O [KGFF03, H-Dmt-D-Arg-Aba-β-Ala-Arg-Phe-NH2] (HELM PEPTIDE1{[Cc1cc(O)cc(C)c1C[C@H](N)C(=O)[*:2]].[dR].[O=C1[C@@H](N[*:1])Cc2ccccc2CN1CCC(=O)[*:2]].R.F.[am]}$$$$V2.0) was tested on human NOPr (Homo sapiens, UniProt P41146); the reported pKi is 6.54

Measured pKi (human NOPr (Homo sapiens, UniProt P41146)), entry "Cc1cc(O)cc(C)c1C[C@H](N)C(=O)N[C@H](CCCNC(=N)N)C(=O)N[C@H]1Cc2ccccc2CN(CCC(=O)N[C@@H](CCCN2CCC(Cc3ccccc3)CC2)C(=O)N[C@@H](Cc2ccccc2)C(N)=O)C1=O" : 6.68

---

Kindly state pKi for each of the entries shown.
Starred links: 1 amine or outer side, 2 acyl side, 3 side chain; linkers in the order of their positions; H or OH if unused. Non-standard residues stand in square brackets, D forms with d. Residues, ends and D or L forms follow the SMILES beside them. *: point of attachment. X1 = O=C1[C@@H](N[*:1])Cc2ccccc2CN1CCC(=O)[*:2]; Dmt = Cc1cc(O)cc(C)c1C[C@H](N)C(=O)O; X2 = c1ccc2[nH]c(*)nc2c1; X4 = c1ccc2sc(*)nc2c1
Here pKi is given on a logarithmic scale as minus log10 of the concentration in mol/L.

Known value: human NPFF1R (Homo sapiens, UniProt Q9GZQ6) pKi of the compound Cc1cc(O)cc(C)c1C[C@H](N)C(=O)N[C@H](CCCNC(=N)N)C(=O)N[C@@H](Cc1ccccc1)C(N)=O [KGFF07, H-Dmt-D-Arg-Phe-NH2] (HELM PEPTIDE1{[Cc1cc(O)cc(C)c1C[C@H](N)C(=O)[*:2]].[dR].F.[am]}$$$$V2.0) equals 7.93

Considering Cc1cc(O)cc(C)c1C[C@H](N)C(=O)N[C@H](CCCNC(=N)N)C(=O)N[C@H]1Cc2ccccc2CN(CCC(=O)N[C@@H](CCCCNc2nc3ccccc3[nH]2)C(=O)N[C@@H](Cc2ccccc2)C(N)=O)C1=O [KGFF14, H-Dmt-D-Arg-Aba-β-Ala-Lys(Bim)-Phe-NH2] (H-[Dmt][dR][X1]K(X2)F-NH2) , its pKi with human NPFF1R (Homo sapiens, UniProt Q9GZQ6) was recorded as 8.34

The value of pKi recorded for Cc1cc(O)cc(C)c1C[C@H](N)C(=O)N[C@H](CCCNC(=N)N)C(=O)N[C@H]1Cc2ccccc2CN(CCC(=O)N[C@@H](CCCCNc2nc3ccccc3s2)C(=O)N[C@@H](Cc2ccccc2)C(N)=O)C1=O [KGFF16, H-Dmt-D-Arg-Aba-β-Ala-Lys(Bth)-Phe-NH2] (H-[Dmt][dR][X1]K(X4)F-NH2) when tested on human NPFF1R (Homo sapiens, UniProt Q9GZQ6) reads 7.10

For CNC(=O)[C@H](Cc1ccccc1)NC(=O)[C@@H](CCCNC(=N)N)NC(=O)[C@@H](N)Cc1c(C)cc(O)cc1C [KGFF13, H-Dmt-D-Arg-Phe-NHMe] (HELM PEPTIDE1{[Cc1cc(O)cc(C)c1C[C@H](N)C(=O)[*:2]].[dR].F.[CN[*:1]]}$$$$V2.0) on human NPFF1R (Homo sapiens, UniProt Q9GZQ6), measured pKi was 6.83

Cc1cc(O)cc(C)c1C[C@H](N)C(=O)N[C@H](CCCNC(=N)N)C(=O)N[C@H]1Cc2ccccc2CN(CCC(N)=O)C1=O [KGOP01, reference compound] tested on human NPFF1R (Homo sapiens, UniProt Q9GZQ6) gave pKi: 5.34

Field pKi (system: human NPFF1R (Homo sapiens, UniProt Q9GZQ6)) for entry "Cc1cc(O)cc(C)c1C[C@H](N)C(=O)N[C@H](CCCNC(=N)N)C(=O)N[C@H]1Cc2ccccc2CN(CC(=O)N[C@@H](CCCNC(=N)N)C(=O)N[C@@H](Cc2ccccc2)C(=O)O)C1=O" = 5.60

Entry "Cc1cc(O)cc(C)c1C[C@H](N)C(=O)N[C@H](CCCNC(=N)N)C(=O)N[C@H]1Cc2ccccc2CNC1=O" , tested on human NPFF1R (Homo sapiens, UniProt Q9GZQ6), has a reported pKi of 5.60

Fill in: human NPFF1R (Homo sapiens, UniProt Q9GZQ6) pKi for Cc1cc(O)cc(C)c1C[C@H](N)C(=O)N[C@@H](CCCNC(=N)N)C(=O)N[C@@H](Cc1ccccc1)C(N)=O [KGFF06, H-Dmt-Arg-Phe-NH2] (HELM PEPTIDE1{[Cc1cc(O)cc(C)c1C[C@H](N)C(=O)[*:2]].R.F.[am]}$$$$V2.0) = 6.83

"Cc1cc(O)cc(C)c1C[C@H](N)C(=O)N[C@H](CCCNC(=N)N)C(=O)N[C@H]1Cc2ccccc2CN(CC(=O)N[C@@H](CCCNC(=N)N)C(=O)N[C@@H](Cc2ccccc2)C(N)=O)C1=O" tested on human NPFF1R (Homo sapiens, UniProt Q9GZQ6) gave pKi: 7.24
